Test: Parallel artificial membrane permeability assay
Details: PAMPA, pH 7.4

chem-smiles | measure-unit | Papp at 16 h
COc1ccc(CCN2CCC(Nc3nc4ccccc4n3Cc3ccc(F)cc3)CC2)cc1 | ×10⁻⁶ cm/s | 145
